Let's look at some compounds and their measured solubility.
# protocol.summary: Solubility of the compound by LYSA
# Type: physicochemical

Cc1ccc2nc(N3CCS(=O)(=O)c4ccccc4C3)cc(NCCN)c2c1 | > 466 µg/mL

Could you now look at the following compound, please?
What does the record list as solubility for "NCCNc1cc(N2CCCc3ccccc3C2)nc2ccccc12" ?
> 460 µg/mL

###

# protocol.summary: Therapeutic index, ratio of CC50 for human Hep2 cells to EC50 for inhibition of RSV long fusion protein assessed as protection against virus induced cytopathic effect in infected human Hep2 cells
# Type: toxicity, cell-based
# experimental.conditions: HEp-2 cells, read-out: Ratio CC50/EC50
Let's look at some molecules and their measured selectivity ratio.

Examples from the recorded data:
Cc1ccc2nc(N3CCS(=O)(=O)c4ccccc4C3)cc(NCCN)c2c1 | 16500
Cc1ccc2nc(N3CCC(F)(F)c4ccccc4C3)cc(NCCN)c2c1 | 106
Cc1ccc2nc(N3CCCc4ccccc4C3)cc(NCCN)c2c1 | 129
Cc1ccc2nc(N3CCCc4cc(F)ccc4C3)cc(NCCN)c2c1 | > 7
NCCNc1cc(N2CCc3ccccc3C2)nc2ccccc12 | 7

What does the record list as selectivity ratio for NCC(O)CNc1cc(N2CCc3ccccc3C2)nc2ccccc12 (stereo unspecified) ?
95

What does the record list as selectivity ratio for "NCCNc1cc(N2CCCc3ccccc3C2)nc2c(Cl)cccc12" ?
23

What does the record list as selectivity ratio for "COc1ccc2nc(N3CCCc4ccccc4C3)cc(NCCN)c2c1" ?
15

What does the record list as selectivity ratio for "Cc1ccc2nc(N3CCS(=O)(=O)c4ccccc4C3)cc(NCCCN)c2c1" ?
21000

What does the record list as selectivity ratio for OCC(O)CNc1cc(N2CCc3ccccc3C2)nc2ccccc12 (stereo unspecified) ?
3

What does the record list as selectivity ratio for "Cc1ccc2nc(N3CCCc4ccc(F)cc4C3)cc(NCCN)c2c1" ?
> 32

###

# protocol.summary: Therapeutic index, ratio of CC50 for human Hep2 cells to EC50 for inhibition of RSV long fusion protein assessed as protection against virus induced cytopathic effect in infected human Hep2 cells
# Format: toxicity, cell-based
# experimental.conditions: HEp-2 cells, read-out: Ratio CC50/EC50
reported.property: selectivity ratio
Give your answer as a number; write no unit.

Examples from the recorded data:
Cc1ccc2nc(N3CCNc4ccccc4C3)cc(NCCN)c2c1 | 52
Cc1ccc2nc(N3CC(=O)Nc4ccccc4C3)cc(NCCN)c2c1 | 177
N=C(N)NCCNc1cc(N2CCc3ccccc3C2)nc2ccccc12 | 43
NCCNc1cc(N2CCCc3ccccc3C2)nc2ccccc12 | 115

Could you now look at the following compound, please?
What does the record list as selectivity ratio for "Cc1ccc2nc(N3CCS(=O)(=O)c4ccccc4C3)cc(NCCCCN)c2c1" ?
13100

###

# protocol.summary: Half life in Wistar-Han rat at 2 mg/kg, iv by LC/MS/MS analysis
# Assay type: ADME, organism-based
# experimental.conditions: in vivo
reported.property: half-life (h)
All answers are understood in h, so give the number only.

Cc1ccc2nc(N3CCS(=O)(=O)c4ccccc4C3)cc(NCCN)c2c1 | 4.5

Could you now look at the following compound, please?
What does the record list as half-life for "NCCNc1cc(N2CCCc3ccccc3C2)nc2ccccc12" ?
12

###

# protocol.summary: Therapeutic index, ratio of CC50 for human Hep2 cells to EC50 for inhibition of RSV long fusion protein assessed as protection against virus induced cytopathic effect in infected human Hep2 cells
# Type: toxicity, cell-based
# experimental.conditions: HEp-2 cells, read-out: Ratio CC50/EC50
reported.property: selectivity ratio
Give your answer as a number; write no unit.

Examples from the recorded data:
NCC(O)CNc1cc(N2CCCc3ccccc3C2)nc2ccccc12 (stereo unspecified) | 95
NC(=O)NCCNc1cc(N2CCc3ccccc3C2)nc2ccccc12 | 5
NCCNc1cc(N2CCCc3ccccc3C2)nc2ccc(C(F)(F)F)cc12 | 6

What does the record list as selectivity ratio for "NCCNc1cc(N2CCCc3ccccc3C2)nc2ccc(F)cc12" ?
5

What does the record list as selectivity ratio for "NCCNc1cc(N2CCCc3ccccc3C2)nc2cccc(Cl)c12" ?
3
